The values you see were collected from paper PMC2926617.

The reader will find reported Kd values listed item by item below.
molecular target: P01, CarA α2 peptide (α2 segment plus the subsequent eight C-terminal residues) (Myxococcus xanthus); experiment: ITC
Respond numerically; units are nM and should not be typed.

Binder	Kd [nM]
CarS1, functional truncated form of CarS (lacking the last 25 residues) (domain or fragment) MIQDPSLIICHDVDGAPVRIGAKVKVVPHSEDGTISQRFLGQTGIVVGLVFDDPATQYPDDPLIQVLVEGLGEDLFFPEELELAPE	150

From here, focus on the item given below.
Could you tell me which Kd is on file for CarS antirepressor (natural protein, Myxococcus xanthus, UniProt Q06911 1-111, looked up) MIQDPSLIICHDVDGAPVRIGAKVKVVPHSEDGTISQRFLGQTGIVVGLVFDDPATQYPDDPLIQVLVEGLGEDLFFPEELELAPEWARNRIAQHRQAVRTGGRSSLERLP ?
150
